- procedure_text: Small angle X-ray scattering of multilamellar vesicles, electron density profiles
- Format: physicochemical
- particulars: PC/PG (9/1) MLVs, peptide/lipid 1/20 (w/w), 20°C; peptide-free 3.62
Hi there, I'd appreciate the recorded dbilayer (thickness of the membrane bilayer), Ld2 phase for every entry that follows.
Give bare numbers, in nm.

substance: RRWWRRWRR-NH2 [RW9, short secondary amphipathic polyarginine-tryptophane peptide, free N-terminal amino group]
quantitative_readout: 3.55

Below are 2 substances. Give each one its dbilayer (thickness of the membrane bilayer), Ld2 phase.
1. RRLRRLLRRLLRRLRR-Bi [RL16, secondary amphipathic polyarginine-leucine peptide with biotin (Bi) on N-terminus]
2. RRWRRWWRRWWRRWRR-Bi [RW16, secondary amphipathic polyarginine-tryptophane peptide with biotin (Bi) on N-terminus]

3.75
3.71

Please report the recorded dbilayer (thickness of the membrane bilayer), Ld2 phase for RQIKIWFQNRRMKWKK-NH2 [pAntp, Penetratin, cell-penetrating peptide, basic, non-amphipathic, 16 residues, reference compound] .
3.63

Every entry's value here was drawn from paper PMC1790702.
